Assay: gradient 5% acetonitrile 3 min, to 50% in 2 min, to 85% in 15 min, held 3 min, 100 µL/min
Details: column: Zorbax Extend-C18 2.1 x 50 mm; eluents: water / acetonitrile, 0.1% formic acid
quantity_name: RP-LC retention time (s)
Answers are plain numbers, in s.

CN1C(=O)C(CC(=O)NC2CCCC2)Sc2ncccc21 (stereo unspecified)	668
CNc1nc(Nc2ccccc2OC)nc2ccccc12	659
CCOc1ccc(-c2noc(Cn3c(=O)n(CCCOC)c(=O)c4ccccc43)n2)cc1OC	956

For each of the items listed, what is its RP-LC retention time?
1. O=C(CN1C(=O)COc2ccc(S(=O)(=O)N3CCOCC3)cc21)NCCc1c[nH]c2ccccc12
2. Cn1c(=O)c(N2CCN(C(=O)c3ccccc3F)CC2)nc2ccccc21
3. COC(=O)c1c(-c2ccccc2)noc1NCc1ccc(C)o1
4. CCCNC(=O)N1CCCCCC1CN1CCCC1 (stereo unspecified)
5. CC(C)(C)c1csc(-c2csc(S(=O)(=O)NCc3ccccc3Cl)c2)n1
6. CCOc1nc2ccccc2nc1N1CCCC(C(=O)NCc2cccc(C)c2)C1 (stereo unspecified)
7. CCOC(=O)C1=NN(c2ccccc2)CC1C(=O)OC (stereo unspecified)

Solution:
[777, 864, 989, 580, 1300, 1170, 917]

For each of the items listed, what is its RP-LC retention time?
1. COc1ccccc1-c1noc(Cn2c(=O)n(-c3ccccc3C)c(=O)c3sccc32)n1
2. Cc1ccc(C)c(NC(=O)Cn2nc(N3CCCC(C)C3)c3ccccc3c2=O)c1 (stereo unspecified)

Solution:
910
1160

* * *

Kindly supply the reported RP-LC retention time values for the records listed here.
Assay: gradient 5% acetonitrile 3 min, to 50% in 2 min, to 85% in 15 min, held 3 min, 100 µL/min
Details: column: Zorbax Extend-C18 2.1 x 50 mm; eluents: water / acetonitrile, 0.1% formic acid
Numbers only, in s.

Cc1ccc(-c2cc3c4nnc(SCC(=O)Nc5cccc(Cl)c5)n4ccn3n2)cc1C	1060

For each of the items listed, what is its RP-LC retention time?
1. NC(=O)c1cnn(-c2cccc(F)c2)c1-n1cccc1
2. Cc1ccc(-c2nc(CN3CCN(C(=O)NC(C)C)CC3)c(C)o2)cc1
3. CCOc1ccccc1NS(=O)(=O)c1cc(-c2cc(C(F)(F)F)on2)sc1C

Solution:
[734, 592, 1120]

For each of the items listed, what is its RP-LC retention time?
1. COc1ccc(CNC(=O)[C@@]23CCCC[C@H]2N(C)C(=O)CC3)c(OC)c1
2. CC(C)c1cccc(NC(=O)C2CC(=O)N(c3cccc(NC(=O)C4CCC4)c3)C2)c1 (centres undefined)
3. Cc1ccc2nc(NC(=O)C3CC(=O)N(c4n[nH]c5ccccc45)C3)sc2c1 (centres undefined)
4. COc1cc(OC)cc(-c2nnc(Cc3nc(-c4cccc(F)c4)no3)o2)c1
5. CC(C)[C@@H]1NC(=O)[C@H](Cc2ccccc2)NC(=O)[C@@H](CC(=O)O)NC(=O)CNC(=O)[C@H](CCCN=C(N)N)NC1=O
6. Cc1csc(-c2cc(S(=O)(=O)Nc3ccc(F)cc3)cn2CC(=O)N2CCCC2)n1
7. CN(C)Cc1c(C(=O)NCCOc2ccc(C(=O)NO)cc2)oc2ccccc12
8. CCOC(=O)C1CCCN(C(=O)c2cn(-c3cc(N4CCSCC4)ncn3)cn2)C1 (centres undefined)

Solution:
1. 663
2. 957
3. 787
4. 907
5. 624
6. 853
7. 628
8. 802

For each of the items listed, what is its RP-LC retention time?
1. Cc1ccc(-n2ccc(=O)c(-c3nc(-c4cccc(Cl)c4)no3)n2)cc1
2. Cn1c(CNC(=O)c2ccc3c(c2)N(S(C)(=O)=O)CC3)nc2ccccc21
3. Cc1noc(-c2cc(=O)n(CC(=O)NCc3ccc(F)cc3Cl)c3ccccc23)n1

Solution:
[1030, 604, 891]

For each of the items listed, what is its RP-LC retention time?
1. CCCCN(C)S(=O)(=O)c1cc(-c2nnc(C3CCCC3)o2)co1
2. O=C(c1ccc2c(c1)OCO2)N1[C@H]2CC[C@@H]1c1cnc(-c3ccccc3)nc1C2
3. CCCNC(=O)N1CCC(c2noc(-c3ccccc3)n2)C1 (centres undefined)
4. CC1=C(c2ccc(C)c(C)c2)S(=O)(=O)N=C1N1CCC(C(=O)NCCN2CCOCC2)CC1

Solution:
1. 1060
2. 914
3. 763
4. 648
